Record form. Attribute: PanDDA run, TFA/DMSO background map: 1-BDC. Fill in for each entry.
# TEST_TARGET: SARS-CoV-2 NSP3 macrodomain (Mac1), P43 crystal form (Severe acute respiratory syndrome coronavirus 2, UniProt P0DTD1)
# Format: binding
# TEST_CONDITIONS: crystal soak 10 mM; TFA/DMSO background map
Give only the figure.

Please supply the value of reported PanDDA run, TFA/DMSO background map: 1-BDC for the item Cc1ccccc1CC(CO)Nc1ncnc2[nH]ccc12 (centres unmarked)
0.15

Please supply the value of reported PanDDA run, TFA/DMSO background map: 1-BDC for the item O=C(O)C(F)(F)F.OCC1(Nc2ncnc3[nH]ccc23)CC1
0.17

Please supply the value of reported PanDDA run, TFA/DMSO background map: 1-BDC for the item OCC(CC1CCCC1)Nc1ncnc2[nH]ccc12 (centres unmarked)
0.1

Please supply the value of reported PanDDA run, TFA/DMSO background map: 1-BDC for the item OCC(Nc1ncnc2[nH]ccc12)C1CC1 (centres unmarked)
0.16

Please supply the value of reported PanDDA run, TFA/DMSO background map: 1-BDC for the item Cn1cc(CC(CO)Nc2ncnc3[nH]ccc23)cn1 (centres unmarked)
0.09

Please supply the value of reported PanDDA run, TFA/DMSO background map: 1-BDC for the item CN(C)CC(CO)Nc1ncnc2[nH]ccc12 (centres unmarked)
0.13

Please supply the value of reported PanDDA run, TFA/DMSO background map: 1-BDC for the item OCC(Cc1c[nH]c2ccccc12)Nc1ncnc2[nH]ccc12 (centres unmarked)
0.11

Please supply the value of reported PanDDA run, TFA/DMSO background map: 1-BDC for the item O=C(O)C(F)(F)F.OCC1(Nc2ncnc3[nH]ccc23)CCC1
0.12

Please supply the value of reported PanDDA run, TFA/DMSO background map: 1-BDC for the item CCC(Nc1ncnc2[nH]ccc12)C(C)(C)O (centres unmarked)
0.07

Please supply the value of reported PanDDA run, TFA/DMSO background map: 1-BDC for the item C#CCC(CO)Nc1ncnc2[nH]ccc12 (centres unmarked)
0.11

Please supply the value of reported PanDDA run, TFA/DMSO background map: 1-BDC for the item OCC(CC1CCCO1)Nc1ncnc2[nH]ccc12 (centres unmarked)
0.17

----------
# TEST_TARGET: SARS-CoV-2 NSP3 macrodomain (Mac1), P43 crystal form (Severe acute respiratory syndrome coronavirus 2)
# Format: binding
# TEST_CONDITIONS: ligand conformations modeled in Mac1 crystal structure
MEASUREMENT_KIND: Total number of conformations
Give only the figure.

Please supply the value of reported Total number of conformations for the item CC(C)(O)[C@@H]1CCCN1c1ncnc2[nH]ccc12
1

Please supply the value of reported Total number of conformations for the item Cc1c[nH]c2ncnc(NCC3(O)CCCC3)c12
2

Please supply the value of reported Total number of conformations for the item Cc1c[nH]c2ncnc(NCC3(O)CCC3)c12
2

Please supply the value of reported Total number of conformations for the item Cc1c[nH]c2ncnc(NCC(C)(C)O)c12
2

----------
# TEST_TARGET: SARS-CoV-2 NSP3 macrodomain (Mac1) (Severe acute respiratory syndrome coronavirus 2, UniProt P0DTD1)
# PROTOCOL: biochemical
# Type: binding
# TEST_CONDITIONS: from SARS CoV-2 macrodomain HTRF assay
MEASUREMENT_KIND: Ligand efficiency (binding enery per heavy atom)
Give only the figure.

Please supply the value of reported Ligand efficiency (binding enery per heavy atom) for the item CC(C)(O)C1N(c2ncnc3[nH]ccc23)CCC1(C)C (stereo not shown)
0.28

Please supply the value of reported Ligand efficiency (binding enery per heavy atom) for the item O=C(O)C(F)(F)F.OC1([C@H]2CCCN2c2ncnc3[nH]ccc23)Cc2ccccc2C1
0.31

Please supply the value of reported Ligand efficiency (binding enery per heavy atom) for the item OC1(CNc2ncnc3[nH]ccc23)CCCSC1 (stereo not shown)
0.33

Please supply the value of reported Ligand efficiency (binding enery per heavy atom) for the item OC1(CNc2ncnc3[nH]ccc23)CCCCC1
0.34

Please supply the value of reported Ligand efficiency (binding enery per heavy atom) for the item CC1CCC(O)(CNc2ncnc3[nH]ccc23)CC1 (stereo not shown)
0.34

Please supply the value of reported Ligand efficiency (binding enery per heavy atom) for the item CC(C)(O)[C@H]1CCCN1c1ncnc2[nH]ccc12
0.41

Please supply the value of reported Ligand efficiency (binding enery per heavy atom) for the item Cc1c[nH]c2ncnc(NCC3(O)CCSCC3)c12
0.31

Please supply the value of reported Ligand efficiency (binding enery per heavy atom) for the item OCC1CC2(CCCC2)CN1c1ncnc2[nH]ccc12 (stereo not shown)
0.32

Please supply the value of reported Ligand efficiency (binding enery per heavy atom) for the item C[C@@H]1CCN(c2ncnc3[nH]ccc23)[C@H](CO)C1 (racemic)
0.31

Please supply the value of reported Ligand efficiency (binding enery per heavy atom) for the item OCC1C2CCC(C2)N1c1ncnc2[nH]ccc12 (stereo not shown)
0.35
